- target_entity: hTopo I (Homo sapiens)
- assay_comment: Relaxation assay for hTopo I
- Type: biochemical
- measurement_setup: relative to 217; from relaxation assay IC50
recorded_metric: fold lower activity (loss in hTopo I inhibition) than 217

Check out these entries, answers already filled in.
# molecule, recorded_measurement
records = [
    ("COc1c(N2CC[C@@H](CN)C2)c(F)cc2c(=O)c(C(=O)O)cn(Cc3cc(-c4ccccc4)no3)c12 [294B/7b]", "≥ 7 fold"),
    ("COc1c(N2CC[C@@H](CN)C2)c(F)cc2c(=O)c(C(N)=O)cn(Cc3ccc(-c4ccccc4)cc3)c12", "3- to 7 fold"),
    ("COc1c(N2CC[C@@H](CN)C2)c(F)cc2c(=O)c(C(=O)O)cn(Cc3ccc(-n4cccn4)cc3)c12 [292B/7a]", "≥ 7 fold"),
    ("CNC(=O)c1cn(Cc2ccc(-c3ccccc3)cc2)c2c(OC)c(N3CC[C@@H](CN)C3)c(F)cc2c1=O", "3- to 7 fold"),
]

Next:
Record summary for COc1c(N2CC[C@@H](CN)C2)c(F)cc2c(=O)c(C(=O)O)cn(Cc3ccc(-c4ccc(F)cc4)cc3)c12 : reported fold lower activity (loss in hTopo I inhibition) than 217 = 2 fold

* * *

- target_entity: hTopo I (Homo sapiens, UniProt P11387)
- Sequence (P11387 whole entry): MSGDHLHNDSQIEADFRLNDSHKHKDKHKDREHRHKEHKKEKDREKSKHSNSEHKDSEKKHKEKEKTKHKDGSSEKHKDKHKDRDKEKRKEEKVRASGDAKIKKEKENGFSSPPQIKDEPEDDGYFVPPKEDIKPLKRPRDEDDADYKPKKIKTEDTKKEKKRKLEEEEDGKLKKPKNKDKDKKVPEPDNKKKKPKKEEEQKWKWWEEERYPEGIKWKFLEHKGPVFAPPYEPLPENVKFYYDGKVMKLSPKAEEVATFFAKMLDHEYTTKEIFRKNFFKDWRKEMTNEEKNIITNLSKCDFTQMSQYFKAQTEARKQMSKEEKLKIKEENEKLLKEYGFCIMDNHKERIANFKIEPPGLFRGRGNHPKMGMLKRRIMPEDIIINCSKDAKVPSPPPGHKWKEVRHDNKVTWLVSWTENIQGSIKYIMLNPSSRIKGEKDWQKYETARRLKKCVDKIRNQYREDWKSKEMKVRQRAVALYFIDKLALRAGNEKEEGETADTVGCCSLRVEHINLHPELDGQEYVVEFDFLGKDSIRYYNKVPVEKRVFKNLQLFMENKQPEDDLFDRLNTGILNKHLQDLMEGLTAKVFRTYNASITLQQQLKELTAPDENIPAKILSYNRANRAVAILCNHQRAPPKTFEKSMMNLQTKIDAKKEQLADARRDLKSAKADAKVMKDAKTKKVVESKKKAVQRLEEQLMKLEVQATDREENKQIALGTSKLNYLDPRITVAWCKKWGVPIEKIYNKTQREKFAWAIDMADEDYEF
pIC50: −log10 of the molar value.
recorded_metric: pIC50

Record summary for O=C(O)c1cn(Cc2ccc(-n3cccn3)cc2)c2cc(NC[C@@H]3CCNC3)c(F)cc2c1=O [298B/9e] : reported pIC50 = < 3.70

* * *

- target_entity: hTopo I (Homo sapiens)
- assay_comment: Relaxation assay for hTopo I
- Format: biochemical
- measurement_setup: relative to 5a; from relaxation assay IC50
recorded_metric: fold lower activity (loss in hTopo I inhibition) than 5a (fold)
Report as a plain number; the unit fold is understood.

# molecule, target_entity, readout_units, recorded_measurement
records = [
    ("O=C(O)c1cn(Cc2ccc(-c3ccccc3)cc2)c2cc(N3C[C@H]4CCNC[C@H]4C3)c(F)cc2c1=O", "hTopo I (Homo sapiens)", "fold", 4),
]

Record summary for N[C@@H]1CCN(c2cc3c(cc2F)c(=O)c(C(=O)O)cn3Cc2ccc(-c3ccccc3)cc2)C1 : reported fold lower activity (loss in hTopo I inhibition) than 5a = 4

Record summary for O=C(O)c1cn(Cc2ccc(-c3ccccc3)cc2)c2cc(N3CC4CNCC4C3)c(F)cc2c1=O (centres unmarked) : reported fold lower activity (loss in hTopo I inhibition) than 5a = 2

Record summary for CN[C@@H]1CCN(c2cc3c(cc2F)c(=O)c(C(=O)O)cn3Cc2ccc(-c3ccccc3)cc2)C1 : reported fold lower activity (loss in hTopo I inhibition) than 5a = 2
